Could you please report measured % inhibition of binding for the items listed next?
target: tetanus neurotoxin (TeNT), authentic tetanus holotoxin (Clostridium tetani, UniProt P04958 2-1315); experiment: competition ELISA on TeNT, binder biotinylated; competitor SVT08L; further: test concentration or dose not given here
Sequence (P04958 2-457 limits assumed, chain 1 of 2): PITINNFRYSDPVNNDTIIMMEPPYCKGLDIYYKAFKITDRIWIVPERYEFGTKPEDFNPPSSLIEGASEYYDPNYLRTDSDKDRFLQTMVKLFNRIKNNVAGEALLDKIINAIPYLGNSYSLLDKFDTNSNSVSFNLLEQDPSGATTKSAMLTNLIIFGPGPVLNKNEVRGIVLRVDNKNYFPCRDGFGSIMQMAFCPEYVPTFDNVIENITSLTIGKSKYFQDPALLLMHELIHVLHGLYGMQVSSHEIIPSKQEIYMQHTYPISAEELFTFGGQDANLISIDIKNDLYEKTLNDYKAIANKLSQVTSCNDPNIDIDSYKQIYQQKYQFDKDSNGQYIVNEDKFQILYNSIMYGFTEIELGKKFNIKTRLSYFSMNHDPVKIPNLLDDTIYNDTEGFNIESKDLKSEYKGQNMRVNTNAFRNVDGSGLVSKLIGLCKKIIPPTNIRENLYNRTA
Sequence (P04958 458-1315 limits assumed, chain 2 of 2): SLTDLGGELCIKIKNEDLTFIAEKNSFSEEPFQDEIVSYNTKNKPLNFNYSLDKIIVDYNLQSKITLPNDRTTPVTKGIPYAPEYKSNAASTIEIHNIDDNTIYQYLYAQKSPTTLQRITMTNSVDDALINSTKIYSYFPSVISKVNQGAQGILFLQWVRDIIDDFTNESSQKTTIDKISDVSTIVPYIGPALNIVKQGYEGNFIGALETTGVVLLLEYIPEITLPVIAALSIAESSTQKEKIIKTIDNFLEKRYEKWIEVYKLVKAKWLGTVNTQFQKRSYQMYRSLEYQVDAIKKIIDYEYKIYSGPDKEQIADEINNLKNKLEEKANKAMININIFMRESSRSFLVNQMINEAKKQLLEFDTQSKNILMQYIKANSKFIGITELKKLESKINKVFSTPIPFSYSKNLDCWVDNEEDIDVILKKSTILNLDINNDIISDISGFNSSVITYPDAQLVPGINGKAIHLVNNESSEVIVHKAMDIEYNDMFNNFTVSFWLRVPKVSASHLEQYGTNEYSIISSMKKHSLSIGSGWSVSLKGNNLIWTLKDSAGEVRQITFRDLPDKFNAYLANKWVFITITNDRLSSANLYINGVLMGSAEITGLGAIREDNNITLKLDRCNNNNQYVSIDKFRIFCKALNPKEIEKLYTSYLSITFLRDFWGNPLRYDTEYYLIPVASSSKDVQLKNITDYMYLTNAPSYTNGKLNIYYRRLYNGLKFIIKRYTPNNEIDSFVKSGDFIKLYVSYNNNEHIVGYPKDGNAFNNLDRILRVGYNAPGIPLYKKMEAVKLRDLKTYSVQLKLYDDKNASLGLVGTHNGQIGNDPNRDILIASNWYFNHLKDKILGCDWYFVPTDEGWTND
Number only, in %; omit the unit.

Lab book: % inhibition of binding of SVT13L (VHH) VHH: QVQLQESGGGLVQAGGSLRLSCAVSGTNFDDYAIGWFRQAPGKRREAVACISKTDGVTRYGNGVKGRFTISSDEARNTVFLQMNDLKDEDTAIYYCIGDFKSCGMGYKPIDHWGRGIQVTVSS noted as 13

Lab book: % inhibition of binding of SVT06L (VHH) VHH: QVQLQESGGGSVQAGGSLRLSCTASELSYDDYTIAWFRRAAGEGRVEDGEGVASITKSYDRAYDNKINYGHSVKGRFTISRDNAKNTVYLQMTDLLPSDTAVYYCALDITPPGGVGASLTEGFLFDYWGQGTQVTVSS noted as 97

Lab book: % inhibition of binding of SVT02L (VHH) VHH: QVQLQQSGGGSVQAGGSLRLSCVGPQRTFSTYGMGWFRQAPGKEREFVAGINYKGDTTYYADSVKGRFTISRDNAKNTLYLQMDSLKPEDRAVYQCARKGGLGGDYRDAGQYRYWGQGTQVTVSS noted as 16

Lab book: % inhibition of binding of SVT34L (VHH) VHH: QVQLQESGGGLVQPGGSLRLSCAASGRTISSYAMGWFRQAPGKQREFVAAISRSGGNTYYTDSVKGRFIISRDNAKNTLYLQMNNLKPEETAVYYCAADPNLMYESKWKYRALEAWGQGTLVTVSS noted as -4

Lab book: % inhibition of binding of SVT15L-3FW4M (VHH) VHH: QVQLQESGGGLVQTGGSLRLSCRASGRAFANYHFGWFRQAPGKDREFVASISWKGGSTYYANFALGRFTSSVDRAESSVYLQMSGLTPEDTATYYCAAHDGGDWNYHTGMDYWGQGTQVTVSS noted as 6

Lab book: % inhibition of binding of SVT16L (VHH) VHH: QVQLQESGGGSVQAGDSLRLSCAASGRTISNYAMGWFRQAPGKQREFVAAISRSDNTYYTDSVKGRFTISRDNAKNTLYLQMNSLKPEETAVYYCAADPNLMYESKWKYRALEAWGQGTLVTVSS noted as 2

Lab book: % inhibition of binding of SVT03L (VHH) VHH: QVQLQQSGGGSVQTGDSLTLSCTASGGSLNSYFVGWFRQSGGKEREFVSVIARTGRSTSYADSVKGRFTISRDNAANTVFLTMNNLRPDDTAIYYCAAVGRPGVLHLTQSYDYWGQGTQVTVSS noted as 10

Lab book: % inhibition of binding of SVT08L (VHH) VHH: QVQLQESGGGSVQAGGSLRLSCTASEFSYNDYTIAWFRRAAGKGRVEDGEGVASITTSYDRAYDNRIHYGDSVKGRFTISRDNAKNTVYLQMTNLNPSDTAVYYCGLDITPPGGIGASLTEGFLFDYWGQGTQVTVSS noted as 96
